# assay comment: protein stability index of a GFP-peptide fusion (GPS, HEK-293T) (PSI 1-6); higher = more stable;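 further: 24-mer peptide tiles fused after GFP, lentivirally expressed, FACS-sorted into six equal bins by GFP/DsRed ratio, decoded by Illumina sequencing, PSI is the read-weighted mean bin number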
# assay context: treatment: MLN4924 1 uM, 8 h; c terminus: a fixed tail appended
assay metric: protein stability index

sequence record	assay metric	observed measurement
MRAAALCDKHSKLFEEPEDPSNRS [PPP2R2C]	protein stability index	5.17
VEAMYCYLRCIQSEVSFEGAYGNL [SMG5]	protein stability index	3.12
ILGSGEEGPQVGPSAAQTLRSFCA [ADAMTS4]	protein stability index	3.95
KFSGLYILSFTVIMVGFILYCSTP [SLC35F2]	protein stability index	3.17
AMCVGCGSQIHDQFILRVSPDLEW [ISL2]	protein stability index	2.16
FFPWREAKPGSTEKGLPLRKTHVL [MFSD9]	protein stability index	2.82
TREAVTEILGIEPDREKGFHLDVE [TSN]	protein stability index	4.64
SVETLDHDSVVEMIRKGGDQTSLL [PDZK1]	protein stability index	4.55
AANLPALVLKIMSGTFAPISDRYS [NEK8]	protein stability index	2.9
LVGLTVIGAFLNLVVLRFLTMNSE [KCNK9]	protein stability index	3.42
VIRLKQEQHVHNEKSVLKEVSHPF [PRKX]	protein stability index	3.62
SIVSGGYGGSGDGLIPTGSGRHPS [ARFIP2]	protein stability index	4.34
RESFTSRQKTSGPSVIQEIHQESG [C10orf62]	protein stability index	5.02
VHHLPLSTEKVVQETVLVEERRVV [EPB41L3]	protein stability index	4.43
MSPYLVPDTQALCHHLPVIRQLAT [SMG5]	protein stability index	2.52

====

# assay comment: protein stability index of a GFP-peptide fusion (GPS, HEK-293T) (PSI 1-6); higher = more stable
# assay context: treatment: DMSO; c terminus: a fixed tail appended
// map protein stability index onto a label; ranges I: < 3; II: ≥ 3 and < 4; III: ≥ 4

sequence record	label class
LQAQVQYQQQHEQQKKDLEILHQQ [SASS6]	III
LSNLTHVLYPVPLESYEDIHGTLH [PRAME]	I
VLLMKDRETNKSRGFAFVTFESPA [RBMX]	I
IELDRTIMPDGTIVTTVTTVQSRP [C2CD2L]	I
MNYMPGTASLIEDIDKKHLVLLRD [LSM1]	II
SIYPMEVLKTRMALRKTGQYSGML [SLC25A25]	I
ALSGKYSREFFNRRGELRHITKLK [SRPK2]	I
SVTKEGLELPEDEEEKKKMEESKA [HSP90AB1]	III
AATDITGFGILGHSQNLAKQQRNE [SEPHS2]	III
KFMLREQFEANGYFFKRPYPFVLF [KMT2E]	II
RTLPNASTVDNIRSIFGNAVSREL [MLH1]	II
TNEAACLLDNPLCADVLFILQDQE [RHOBTB1]	II
EKTQKNQCWKSLFIDTYSDVGRYI [FBXO3]	I
ISLINTRMLFWACSTNKPEGYRVS [FAF2]	I
TTTVTAVTAEVDLFGDAFAASPGE [SNAP91]	III
DFLIHPPERSDLTLYLIVALATVS [PCDHGC5]	I

====

# assay comment: protein stability index of a GFP-peptide fusion (GPS, HEK-293T) (PSI 1-6); higher = more stable
# assay context: treatment: MLN4924 1 uM, 8 h; c terminus: a fixed tail appended

sequence record	protein stability index
AGHRRPAGGIRESKESSKEKKLTV [C22orf31]	4.86
SGDRDENSFSLNSSISSSARRTTR [MAP2]	4.97
REDQLDTVLAVLEDSSRDIREALH [INTS4]	4.38
PHFLRVPCWKITLFVIVPVLGPLV [MOG]	2.85
HSVLQIRYSGKILKNNETLVQHGV [IQUB]	2.31
LADYLVPILAPRIFGSNKWTTEQQ [ARL6IP1]	2.16
RSQSSIVPEEEQAANKGEEKKDDE [SMARCE1]	5.68
DSKSLKTHQTQPGIRRARDKALSG [NET1]	4.7

====

# assay comment: protein stability index of a GFP-peptide fusion (GPS, HEK-293T) (PSI 1-6); higher = more stable
# assay context: treatment: DMSO; c terminus: a fixed tail appended
Think of 4 as a floor: if protein stability index stands on it or above, it is rule met; beneath it, rule not met.

sequence record	label class
HRMVVKIGDFGISKILSSKSKAYT [NEK8]	rule not met
VPECRLAEDLGNLWENTRFTDCSF [SPOPL]	rule not met
LEKDTMDNWDEKKLEEVVNKKHGE [ZC3H15]	rule met
DGTGASQEPPTTDSQEAQSPGHSS [TOR1AIP2]	rule met
VLVILISIVIFCLETLPEFRDEKD [KCNA3]	rule not met
MENKSLESSQTDLKLVAHPRAKSK [ZBED1]	rule met
GFENMDFFTLDLEHIADALRAIDF [TRIM63]	rule not met
ESSTRLLLEKNASVNEVDFEGRTP [RIPK4]	rule met
GTAITSQYLAERYKVNTPMLQSFI [SLC35F2]	rule not met
RRIHSLPQKLLGCSPALKRSHSDS [CDC25A]	rule met
QSVSYSKLLSVIVWMLMLLLAVPN [P2RY14]	rule not met
EFPESRKPISTKSQFLKHQQTHNI [ZNF649]	rule not met
CRGHTLERSVFSERTEESSAVQYF [CARM1]	rule not met
HGCEYSCVNMDRSFACQCPEGHVL [MATN2]	rule not met
AIRRFQSMPVRLLGHSPVLRNITN [CDC25B]	rule not met
PNPSKVLQQLLVLQPEQQLNIYKT [CDS1]	rule not met
VLRREISELRTKVQEQQKQLQDQD [FBXO28]	rule met
YFHINQTLREAHFHSLQHRGRPLT [FAM104A]	rule not met
MIIVAISPKYKQDVEGAESQLDED [TRAF3IP2]	rule not met
IIELLGSIPRHFALSGKYSREFFN [SRPK2]	rule not met
QKLNVFKNFIGLLQNQNFPYPVLF [NLN]	rule not met
ALDEIKLLKCVRESDPSDPNKDMV [SRPK2]	rule met

The measurements presented in this section are drawn from the supplement of paper PMC10567573.
